Test system: HCC1569;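 note: TDF denotes transformed human dermal fibroblasts of mesenchymal origin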
Assay: cell number relative to DMSO (% of DMSO); higher = more cells (less growth inhibition / toxicity)
Conditions: concentration: 10 µM; 24 h
measurementLabel: cell number

- CCCCCCCCCCCCCCCC(=O)OCC(COP(=O)([O-])OCC[N+](C)(C)C)OC(C)=O (stereo not drawn): 102
- CC(=O)NBr [N-Bromoacetamide]: 105
- CCCN1CCCC2Cc3nc(N)ncc3CC21.Cl.Cl (stereo not drawn) [Quinelorane dihydrochloride]: 99.7
- CC(=O)OCC12CCC(C)=CC1OC1C(O)C(OC(C)=O)C2(C)C12CO2 (stereo not drawn) [Diacetoxyscirpenol]: 56.8
- NC(Cn1oc(=O)[nH]c1=O)C(=O)O (single isomer, unassigned; (+)) [(+)-Quisqualic acid]: 101
- CCCN1CCCC2Cc3[nH]ncc3CC21 (racemic): 99.6
- CCOP(=O)(OCC)C(C)NC(=O)N(CCCl)N=O (stereo not drawn): 100
- CN1C(=O)CCS(=O)(=O)C1c1ccc(Cl)cc1 (stereo not drawn) [Chlormezanone]: 101
- NC(Cn1ccc(=O)[nH]c1=O)C(=O)O (stereo not drawn) [S(-)-Willardiine]: 104
- C=CC12CN(C)C3C4COC(CC41)C1(C(=O)Nc4ccccc41)C32.Cl (stereo not drawn): 102
- CCN(C)C(=O)Oc1cccc([C@H](C)N(C)C)c1.O=C(O)C(O)C(O)C(=O)O: 98.4
- CCCN(CCC)C1CCc2cccc(O)c2C1 (racemic): 101
- N#CC(C#N)=Cc1ccc(O)c(O)c1 [Tyrphostin 23]: 92.8
- CNC(=O)Oc1ccc2c(c1)C1(C)CCN(C)C1N2C (stereo not drawn) [Physostigmine]: 104
- CC(=O)NCCc1c[nH]c2ccccc12 [N-Acetyltryptamine]: 101
- Cl.Cl.NNCc1cccc(O)c1 [3-Hydroxybenzylhydrazine dihydrochloride]: 46.1
- CNC(=O)Oc1ccc2c(c1)C1(C)CCN(C)C1N2C.CNC(=O)Oc1ccc2c(c1)C1(C)CCN(C)C1N2C.O=S(=O)(O)O (stereo not drawn) [Physostigmine sulfate]: 97.1
- NC(N)=Nc1ccc2[nH]c3c(c2c1)CC1(O)C2Cc4ccc(O)c5c4C1(CCN2CC1CC1)C3O5.O=C(O)C(F)(F)F.O=C(O)C(F)(F)F (stereo not drawn) [Guanidinyl-naltrindole di-trifluoroacetate]: 93.6

* * *

System: TDF;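 note: TDF is a line of transformed human dermal fibroblasts of mesenchymal origin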
Test: H1.0 immunofluorescence intensity relative to DMSO (% of DMSO); higher = stronger H1.0 induction, active = 120 or more
Conditions: concentration: 10 µM; 24 h
Outcomes: class 1 for active, class 0 for inactive

* OCC1CCCN2CCCCC12 (stereo not drawn) | class 0
* CCCN1CC(CSC)CC2c3cccc4[nH]cc(c34)CC21.CS(=O)(=O)O (stereo not drawn) [Pergolide methanesulfonate] | class 0
* Cl.Oc1ccc2c3c1OC1C(O)CCC4(O)C(C2)N(CC2CCC2)CCC314 (stereo not drawn) [Nalbuphine hydrochloride] | class 0
* CC1=C(C)C(=O)C(CCC(C)(O)CCCC(C)CCCC(C)CCCC(C)C)=C(C)C1=O (racemic) | class 0
* c1ccc2c3c([nH]c2c1)CNCC3 | class 0
* O=[N+]([O-])c1ccc(O[C@@H]2O[C@H](CO)[C@@H](O)[C@H](O)[C@H]2F)c([N+](=O)[O-])c1 [2,4-Dinitrophenyl 2-fluoro-2-deoxy-beta-D-glucopyranoside] | class 0
* CC1(O)CC23CC(O)C4(O)C(CC(O)C4(C)C)C(C)(O)C2CCC1C3O (stereo not drawn) | class 0
* Br.C=CCN1CCc2cccc3c2C1Cc1ccc(O)c(O)c1-3 (stereo not drawn) [R(-)-N-Allylnorapomorphine hydrobromide] | class 0
* CCC1(O)C(=O)OCc2c1cc1n(c2=O)Cc2cc3ccccc3nc2-1 [(S)-(+)-Camptothecin] | class 1
* CC1CN(C2CCC(C#N)(c3ccc(F)cc3)CC2)CCC1(C(=O)O)c1ccccc1.Cl (stereo not drawn) [Levocabastine.HCl] | class 0
* Cl.Oc1cc2c(cc1O)C1c3ccccc3CNC1CC2 (stereo not drawn) [Dihydrexidine hydrochloride] | class 0
* CN(C)C(=O)Oc1cccc([N+](C)(C)C)c1.COS(=O)(=O)[O-] | class 0
* OC1CN2CCCC(O)C2C1O (stereo not drawn) | class 0
* COc1ccc2c(c1)=NC1=C(C)NCCC=21 | class 0
* COC(=O)C(N)CCCN=C(N)N[N+](=O)[O-].Cl [NG-Nitro-L-arginine methyl ester hydrochloride] | class 0
* Br.COC(=O)C1=CCCN(C)C1 | class 0
* Ic1ccccc1CNC1C2CCN(CC2)C1C(c1ccccc1)c1ccccc1.O=C(O)C(=O)O [L-703,606 oxalate] | class 0
* CNc1ccc2oc(CC3OC4(CCC3C)OC(C(C)C(=O)c3ccc[nH]3)C(C)CC4C)nc2c1C(=O)O (stereo not drawn) [Calcimycin] | class 1
* COc1cc2c3cc1Oc1c(OO)c(OC)cc4c1C(Cc1ccc(cc1)Oc1cc(ccc1O)CC3N(C)CC2)N(C)CC4.O=S(=O)(O)O (stereo not drawn) [Oxyacanthine sulfate] | class 1
* C1CCC(NC2CCCCC2)CC1 | class 0
* Br.Br.CN(C)CCN(C)CCc1ccc(Cl)c(Cl)c1 | class 0
* Cl.Cl.Clc1ccc(N2CC3CCC(C2)N3)nn1 | class 0
* COC12CC(COC(=O)c3cncc(Br)c3)CN(C)C1Cc1cn(C)c3cccc2c13 (stereo not drawn) | class 0
* Cl.NCC(O)c1ccc(O)cc1 (racemic) | class 0
* C=C1C(C)C2C(Cc3ccccc3)NC(=O)C23C(OC(C)=O)C=CC(C)(O)C(=O)C(C)CC=CC3C1O (stereo not drawn) | class 1
* CCN1CC2(COC)CCC(OC)C34C5CC6(O)C(OC)CC(OC(C)=O)(C5C6C(=O)c5ccc(OC)cc5)C(C(OC)C23)C14 (stereo not drawn) | class 0
* BrC1C(Br)C(Br)C(Br)C(Br)C1Br (stereo not drawn) | class 0
* CC(=O)OC1CC2CCC3C(CCC4(C)C3CC([N+]3(C)CCCCC3)C4OC(C)=O)C2(C)CC1[N+]1(C)CCCCC1.[Br-].[Br-] (stereo not drawn) [Pancuronium bromide] | class 0
* [Cl-].c1ccc2c(c1)[I+]c1ccccc1-2 [Diphenyleneiodonium chloride] | class 1
* CC12CCC(O)CC1CCC1C2CCC2(C)C(C(=O)CO)CCC12 (stereo not drawn) [3-alpha,21-Dihydroxy-5-alpha-pregnan-20-one] | class 0
* C[N+]1([O-])C2CC(OC(=O)C(CO)c3ccccc3)CC1C1OC12 (single isomer, unassigned; (-)) [(-)-Scopolamine N-oxide] | class 0
* NC(=O)COc1c(F)cc(SCCNS(=O)(=O)c2ccccc2)cc1F | class 0
* CC=C(C)C(=O)OC1CCC2(C)C3CCC4C5(O)CC(O)C6(O)C(CN7CC(C)CCC7C6(C)O)C5(O)CC42OC13O (stereo not drawn) | class 0

* * *

System: HCC1569;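 note: TDF denotes transformed human dermal fibroblasts of mesenchymal origin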
Assay: cell number relative to DMSO (% of DMSO); higher = more cells (less growth inhibition / toxicity)
Conditions: concentration: 10 µM; 24 h
measurementLabel: cell number

• CC(=O)NC1CN2CCC(O)C2C(O)C1O (stereo unspecified) [6-Acetamido-6-deoxy-castanospermine] = 103
• Cl.Cl.Clc1ccc(N2CC3CCC(C2)N3)nn1 = 103
• C=C(C)C1Cc2c(ccc3c2OC2COc4cc(OC)c(OC)cc4C2C3=O)O1 (stereo unspecified) [Rotenone] = 59.7
• CCCN(CCC)C(=O)Cc1c(-c2ccc(Cl)cc2)nc2ccc(Cl)cn12 = 87.6
• CP(=O)([O-])C1=CC[NH2+]CC1 = 96.6
• Cl.Cl.Fc1ccc(C(OCCN2CCN(CCCc3ccccc3)CC2)c2ccc(F)cc2)cc1 = 81
• CN(C)CCc1ccc(O)cc1.CN(C)CCc1ccc(O)cc1.O=S(=O)(O)O [Hordenine sulfate] = 99.3
• CN1CCN(c2ccc3ccccc3n2)CC1.O=C(O)C=CC(=O)O.O=C(O)C=CC(=O)O [Quipazine, N-methyl-, dimaleate] = 102
• COc1ccc(CCN2CCC(Nc3nc4ccccc4n3Cc3ccc(F)cc3)CC2)cc1 [Astemizole] = 88.6
• [Cl-].c1ccc2c(c1)[I+]c1ccccc1-2 [Diphenyleneiodonium chloride] = 61.4
• COc1ccc2c(c1)C13CCCCC1C(C2)N(C)CC3 (stereo unspecified) [Dextromethorphan] = 103
• Cc1nc(-c2ccc(-c3ccc(C(=O)N4CCc5cc6c(cc54)C4(CCN(C)CC4)CO6)cc3)c(C)c2)no1.Cl = 70.1
• Cl.NNC(N)=O [Semicarbazide hydrochloride] = 102
• C[N+](C)(C)CCCCCCCCCC[N+](C)(C)C [Decamethonium] = 105
• CCCCCC=CC=CC(CCCCCCCC(=O)O)OO (stereo unspecified) = 101
• Cl.c1ccc2sc(C3(N4CCCCC4)CCCCC3)cc2c1 [BTCP hydrochloride] = 100
• C=CC1CN2CCC1CC2C(O)c1ccnc2ccccc12 (single isomer, unassigned; (+)) [(+)-Cinchonine] = 101
• CN1CC[C@@]2(C)c3cc(OC(=O)Nc4ccccc4)ccc3N(C)[C@@H]12 = 103
• C[N+](C)(C)CCCCCCCCCC[N+](C)(C)C.[Br-].[Br-] [Decamethonium dibromide] = 101
• N#CC(C#N)=Cc1ccc([N+](=O)[O-])c(O)c1 [Tyrphostin AG 126] = 99.1
• O=C([O-])Cc1ccccc1.[Na+] [Sodium Phenylacetate] = 96.8
• CC1Cc2cc3c(cc2C(c2ccc(N)cc2)=NN1)OCO3 (stereo unspecified) = 98.9
• Br.C=CCN1CCc2cccc3c2C1Cc1ccc(O)c(O)c1-3 (stereo not drawn) [R(-)-N-Allylnorapomorphine hydrobromide] = 84.8
• CC12CCC3C(CCC4CC(O)CCC43C)C1CCC2=O (stereo unspecified) [Androsterone] = 95
• CCCCCN(C)CCC(O)(P(=O)([O-])O)P(=O)(O)O.[Na+] = 99.5
• CC1OC(=O)C2CC3CCCCC3C(C=CC3CCCC(C)N3C)C12 (single isomer, unassigned; (+)) [(+)-Himbacine] = 102
• NC(=S)NN=Cc1coc2ccccc2c1=O.[Cl][Cu][Cl] = 96.2
• CCCCCCC(=O)CCCCCCC=CCC(O)C(O)C(N)(CO)C(=O)O (stereo unspecified) [Myriocin] = 100
• Cc1ccc2c(c1)C1(CCN(CCc3nc(-c4ccccc4)oc3C)CC1)OC(=O)N2 = 85.9
• Cl.Oc1ccc2c3c1OC1C(O)CCC4(O)C(C2)N(CC2CCC2)CCC314 (stereo unspecified) [Nalbuphine hydrochloride] = 105
• CC1OC(=O)C2CC3CCCCC3C(C=CC3CCCC(C)N3C)C12 (stereo unspecified) [Himbacine] = 103
• CC=C1CC(C)C(C)(O)C(=O)OCC2=CCN3CCC(OC1=O)C23 (stereo unspecified) [Senecionine] = 98.6
• OCC1CCCN2CCCCC12 (stereo unspecified) [Lupinine] = 109
• NCCN(CCN)N(O)N=O [1,1-bis(2-aminoethyl)-2-hydroxy-3-oxotriazane] = 99.5
• CCCCCCCCCCCCCCCCOCC(COP(=O)([O-])OCC[N+](C)(C)C)OC(C)=O (stereo unspecified) = 96
• NC1(C(=O)O)CCC(C(=O)O)C1 (mixture of isomers) = 104
